Molecular target: HLA-B*27:03
Experiment: IEDB peptide-MHC binding, purified MHC/competitive/fluorescence; filed as Kd, often an IC50 or EC50 that approximates it; bounds were set here for any values at or beyond the usual limits of such assays
Details: source organism: Listeria monocytogenes serotype 4b str. H7858
resultType: Kd

Kindly note the recorded Kd for ITWPRTRHW , which is ≥ 20 µM

---

Molecular target: HLA-C*04:01
Test: IEDB peptide-MHC binding, purified MHC/direct/fluorescence; filed as Kd, often an IC50 or EC50 that approximates it; bounds were set here for any values at or beyond the usual limits of such assays
Conditions: source organism: Mycobacterium tuberculosis C
pKd: −log10 of the molar value.
resultType: pKd

Entry VYAPAGVEL , tested on HLA-C*04:01, has a reported pKd of ≤ 4.70
